Ref: patent US20210388087A1

target: Human CD137 ECD (human)
Sequence (chain, as listed by the source limits assumed): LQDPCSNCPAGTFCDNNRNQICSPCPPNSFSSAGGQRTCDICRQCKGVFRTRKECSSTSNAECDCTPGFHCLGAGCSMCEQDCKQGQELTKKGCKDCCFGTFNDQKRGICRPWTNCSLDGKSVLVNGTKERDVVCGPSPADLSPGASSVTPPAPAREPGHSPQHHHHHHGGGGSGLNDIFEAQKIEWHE
measurement.protocol: single mutant vs template dBBDu183H
measured.attribute: fold change of affinity (fold)
Just the number please, in fold, no unit attached.

[
  {
    "binder": "H183/L072 VH I51H (antibody, name in Kabat numbering, V domains shown) VH: QVQLVESGGGLVQPGRSLRLSCAASGFTFSNAWMHWVRQAPGKGLEWVAQHKDKGNAYAAYYAPSVKGRFTISRDDSKNSIYLQMNSLKTEDTAVYYCHYVHYASASTVLPAFGVDAWGQGTTVTVSS VL: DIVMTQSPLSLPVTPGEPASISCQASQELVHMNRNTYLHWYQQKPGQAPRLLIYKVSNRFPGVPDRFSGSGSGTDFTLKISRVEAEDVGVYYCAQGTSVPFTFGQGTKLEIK",
    "measured.attribute": "fold change of affinity",
    "unit.descriptor": "fold",
    "measured.result": 0
  }
]

# next binder below
Entry H183/L072 VH T100bP (antibody, name in Kabat numbering, V domains shown) VH: QVQLVESGGGLVQPGRSLRLSCAASGFTFSNAWMHWVRQAPGKGLEWVAQIKDKGNAYAAYYAPSVKGRFTISRDDSKNSIYLQMNSLKTEDTAVYYCHYVHYASASPVLPAFGVDAWGQGTTVTVSS VL: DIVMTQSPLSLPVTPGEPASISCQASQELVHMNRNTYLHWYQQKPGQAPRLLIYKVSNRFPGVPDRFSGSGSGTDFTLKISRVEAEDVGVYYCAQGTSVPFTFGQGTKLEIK ; fold change of affinity = 0
